- protocol: xn = mol fraction of the nth substance listed
- test.parameters: 313.2 K, Ring tensiometer, x2 = 0.3
property.name: surface tension liquid-gas (mN/m)

Read the entry OCC(O)CO [glycerol] + CCCO and write its reported surface tension liquid-gas.
29.3

Report surface tension liquid-gas for OCC(O)CO [glycerol] + CCO
35.7

Query surface tension liquid-gas for OCC(O)CO [glycerol] + CCCCO
26.1

Provide surface tension liquid-gas value for the following compound: OCC(O)CO [glycerol] + CC(C)O
28

###

- protocol: xn = mol fraction of the nth substance listed
- test.parameters: 293.2 K, Ring tensiometer, x2 = 0.5
property.name: surface tension liquid-gas (mN/m)

Given OCC(O)CO [glycerol] + CCCO , respond with its surface tension liquid-gas.
27.3

Write down surface tension liquid-gas measured for item OCC(O)CO [glycerol] + CCCCO
25.9

Look up and report measured surface tension liquid-gas for this entry: OCC(O)CO [glycerol] + CCO
29

Identify measured surface tension liquid-gas associated with OCC(O)CO [glycerol] + CC(C)O
25.6

These measurements were taken from the NIST ThermoML archive (doi:10.1016/j.jct.2019.03.014).
